The measurements presented in this section are drawn from the supplement of paper PMC6555819.

# Tested on: PPARg:RXRa 270nM:90nM, anti-RXR (NR concentration 270 nM, RXRa partner concentration 90 nM)
# assay_overview: PBM binding z-score (relative to random genomic background probes); higher = stronger binding; sequences stand for … in GC…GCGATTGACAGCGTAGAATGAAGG
Quick rule for you: PBM binding z-score at 3 or higher means 1, lower means 0.

Example results:
sequence_chain: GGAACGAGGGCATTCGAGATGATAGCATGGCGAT
label: 0
--
sequence_chain: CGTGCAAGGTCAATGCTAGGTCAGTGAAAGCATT
label: 1
--
sequence_chain: GCTAGCAGGCCATTTGGGTCCCTCAATGACGGGC
label: 0

Could you verify whether the entry `ACTTACGGGTCAACGAGGTTATAGCTCGCGTATA` shows PBM binding z-score of no less than 3?
1

And `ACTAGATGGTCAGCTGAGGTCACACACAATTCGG` ?
0
